biological target: T1, cynomolgus monkey BCMA (cynomolgus monkey, UniProt A0A2K5UD97 1-53); assay: SPR, IgG on chip, cyBCMA analyte
T1 construct: Soluble analyte in SPR; construct not described; also called cyBCMA; Cyno BCMA
T1 sequence (A0A2K5UD97 entry or part of it): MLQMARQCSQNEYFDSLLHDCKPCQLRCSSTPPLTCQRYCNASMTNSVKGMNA
pKd: −log10 of the molar value.

binder: COMBO_Rd4_0.6nM_C20 (antibody, V domains shown, IgG) VH: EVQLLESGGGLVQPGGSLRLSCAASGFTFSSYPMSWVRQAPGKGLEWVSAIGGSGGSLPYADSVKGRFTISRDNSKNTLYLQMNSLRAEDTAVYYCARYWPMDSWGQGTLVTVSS VL: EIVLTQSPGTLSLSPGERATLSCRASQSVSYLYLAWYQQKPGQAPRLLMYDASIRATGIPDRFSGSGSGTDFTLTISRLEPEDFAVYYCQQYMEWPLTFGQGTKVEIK
pKd: 10.04
--
binder: COMBO_Rd4_0.6nM_C29 (antibody, V domains shown, IgG) VH: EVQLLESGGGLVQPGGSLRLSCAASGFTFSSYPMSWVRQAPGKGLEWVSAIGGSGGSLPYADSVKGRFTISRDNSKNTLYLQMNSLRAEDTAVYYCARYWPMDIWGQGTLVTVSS VL: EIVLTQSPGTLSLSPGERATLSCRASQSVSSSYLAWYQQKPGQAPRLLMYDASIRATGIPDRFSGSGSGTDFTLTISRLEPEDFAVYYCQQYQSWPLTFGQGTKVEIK
pKd: 10.08
--
binder: C01_Rd4_6nM_C04 (antibody, V domains shown, IgG) VH: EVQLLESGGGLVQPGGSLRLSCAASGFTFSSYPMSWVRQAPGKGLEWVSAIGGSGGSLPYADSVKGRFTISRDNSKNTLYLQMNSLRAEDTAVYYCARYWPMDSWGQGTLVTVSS VL: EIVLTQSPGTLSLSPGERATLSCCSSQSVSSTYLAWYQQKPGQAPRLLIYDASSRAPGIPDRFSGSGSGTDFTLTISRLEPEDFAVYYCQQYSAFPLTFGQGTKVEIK
pKd: 8.29
--
binder: A02_Rd4_0.6nM_C06 (antibody, V domains shown, IgG) VH: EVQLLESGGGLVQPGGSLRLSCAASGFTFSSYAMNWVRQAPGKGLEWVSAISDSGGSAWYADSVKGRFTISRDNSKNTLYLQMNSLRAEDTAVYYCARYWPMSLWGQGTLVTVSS VL: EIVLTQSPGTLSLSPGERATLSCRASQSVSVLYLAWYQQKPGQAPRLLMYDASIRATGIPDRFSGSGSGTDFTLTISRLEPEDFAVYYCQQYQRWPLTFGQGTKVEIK
pKd: 10.24
--
binder: COMBO_Rd4_0.6nM_C09 (antibody, V domains shown, IgG) VH: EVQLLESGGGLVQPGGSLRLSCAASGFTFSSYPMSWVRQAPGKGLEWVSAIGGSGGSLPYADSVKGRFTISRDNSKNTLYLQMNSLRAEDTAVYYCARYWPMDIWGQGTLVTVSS VL: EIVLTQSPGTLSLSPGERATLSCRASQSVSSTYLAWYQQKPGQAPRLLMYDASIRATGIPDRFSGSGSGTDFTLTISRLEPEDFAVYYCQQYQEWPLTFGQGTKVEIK
pKd: 10.04
--
binder: A02_Rd4_6nM_C25 (antibody, V domains shown, IgG) VH: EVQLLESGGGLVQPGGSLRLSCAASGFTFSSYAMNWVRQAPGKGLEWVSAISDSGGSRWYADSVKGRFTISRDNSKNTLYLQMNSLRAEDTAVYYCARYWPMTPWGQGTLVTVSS VL: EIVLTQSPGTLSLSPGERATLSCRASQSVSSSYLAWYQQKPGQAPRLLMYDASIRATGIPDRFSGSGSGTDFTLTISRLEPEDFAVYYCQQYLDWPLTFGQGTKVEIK
pKd: 9.66
--
binder: COMBO_Rd4_0.6nM_C22 (antibody, V domains shown, IgG; also called COM22) VH: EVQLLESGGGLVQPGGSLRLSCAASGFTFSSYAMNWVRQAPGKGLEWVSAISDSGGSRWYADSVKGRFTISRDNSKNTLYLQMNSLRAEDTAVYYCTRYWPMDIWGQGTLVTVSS VL: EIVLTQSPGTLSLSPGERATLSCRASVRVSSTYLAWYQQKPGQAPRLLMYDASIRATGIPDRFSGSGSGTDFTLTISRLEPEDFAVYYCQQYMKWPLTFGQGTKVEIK
pKd: 10.30
--
binder: A02_Rd4_6nM_C10 (antibody, V domains shown, IgG) VH: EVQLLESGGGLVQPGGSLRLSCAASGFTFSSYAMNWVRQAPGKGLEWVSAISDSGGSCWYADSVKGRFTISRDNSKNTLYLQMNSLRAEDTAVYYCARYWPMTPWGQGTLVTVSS VL: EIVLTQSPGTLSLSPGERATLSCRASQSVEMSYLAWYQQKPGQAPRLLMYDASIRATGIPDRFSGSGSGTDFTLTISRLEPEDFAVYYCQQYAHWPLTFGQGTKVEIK
pKd: 9.33
--
binder: C01_Rd4_6nM_C09 (antibody, V domains shown, IgG) VH: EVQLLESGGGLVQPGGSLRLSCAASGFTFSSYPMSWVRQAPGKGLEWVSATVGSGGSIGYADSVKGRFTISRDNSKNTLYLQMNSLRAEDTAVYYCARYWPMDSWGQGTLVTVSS VL: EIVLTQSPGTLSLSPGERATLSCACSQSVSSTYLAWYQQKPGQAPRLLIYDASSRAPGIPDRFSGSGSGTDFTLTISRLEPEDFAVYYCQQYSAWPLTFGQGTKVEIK
pKd: 8.63
--
binder: COMBO_Rd4_6nM_C12 (antibody, V domains shown, IgG) VH: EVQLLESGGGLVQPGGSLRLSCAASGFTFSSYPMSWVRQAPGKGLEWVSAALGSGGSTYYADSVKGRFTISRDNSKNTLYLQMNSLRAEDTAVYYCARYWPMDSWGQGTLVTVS VL: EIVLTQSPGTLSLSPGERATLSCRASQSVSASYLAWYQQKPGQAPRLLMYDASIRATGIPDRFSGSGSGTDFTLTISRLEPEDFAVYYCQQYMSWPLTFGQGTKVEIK
pKd: 9.83
